Values were extracted from patent US20190040149A1.

Listing of recorded Kd by entry.
- measurementTarget: T1, murine PD-1_Fc (mouse, UniProt Q02242 25-167, limits assumed)
- T1 construct: not shown: Fc part
- T1 sequence: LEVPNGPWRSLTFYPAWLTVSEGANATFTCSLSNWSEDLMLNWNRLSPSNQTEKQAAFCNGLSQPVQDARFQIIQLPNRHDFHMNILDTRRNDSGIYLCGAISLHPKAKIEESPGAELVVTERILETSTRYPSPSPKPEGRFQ
- protocol: bio-layer interferometry (ForteBio), Fab in solution, murine PD-1_Fc on sensor tip
Reply with just the number (in nM).

Recorded Kd, per entry:
binder | Kd / nM
Fab of Antibody D (Fab, V domains shown, Fab in solution in BLI; also called Antibody D (Fab in solution)) VH: QVQLVQSGAEVKKPGASVKVSCKASGYTFEKYYMHWVRQAPGQGLEWMGIINPDGGSTGYAQKFQGRVTMTRDTSTSTVYMELSSLRSEDTAVYYCAKEGVADGYGLVDVWGQGTMVTVSS VL: EIVLTQSPATLSLSPGERATLSCRASQSVSSYLAWYQQKPGQAPRLLIYDASKRATGIPARFSGSGSGTDFTLTISSLEPEDFAVYYCDQRNNWPLTFGGGTKVEIK | 7.8
Fab of Antibody F (Fab, V domains shown, Fab in solution in BLI; also called Antibody F (Fab in solution)) VH: QVQLVQSGAEVKKPGASVKVSCKASGYTFSAYYMHWVRQAPGQGLEWMGIINPDGGSTGYAQKFQGRVTMTRDTSTSTVYMELSSLRSEDTAVYYCAKEGVADGYGLVDVWGQGTMVTVSS VL: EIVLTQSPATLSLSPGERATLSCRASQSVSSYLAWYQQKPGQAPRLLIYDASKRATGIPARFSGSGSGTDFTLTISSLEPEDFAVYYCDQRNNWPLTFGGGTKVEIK | 6.1
Fab of Antibody C (Fab, V domains shown, Fab in solution in BLI; also called Antibody C (Fab in solution)) VH: QVQLVQSGAEVKKPGASVKVSCKASGYTFTAQYMHWVRQAPGQGLEWMGIINPSGGETGYAQKFQGRVTMTRDTSTSTVYMELSSLRSEDTAVYYCAKEGVADGYGLVDVWGQGTMVTVSS VL: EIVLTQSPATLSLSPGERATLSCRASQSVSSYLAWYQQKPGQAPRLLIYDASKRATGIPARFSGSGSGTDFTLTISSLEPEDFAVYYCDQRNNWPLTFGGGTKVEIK | 10
Fab of Antibody A (Fab, V domains shown, Fab used in solution in the bio-layer interferometry columns 'Fab in solution'; also called Antibody A (Fab in solution)) VH: QVQLVQSGAEVKKPGASVKVSCKASGYTFTSYYMHWVRQAPGQGLEWMGIINPSGGSTSYAQKFQGRVTMTRDTSTSTVYMELSSLRSEDTAVYYCAKEGVADGYGLVDVWGQGTMVTISS VL: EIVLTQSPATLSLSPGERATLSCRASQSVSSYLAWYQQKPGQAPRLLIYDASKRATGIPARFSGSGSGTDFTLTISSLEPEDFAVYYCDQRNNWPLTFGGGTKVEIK | 33
Fab of Antibody E (Fab, V domains shown, Fab in solution in BLI; also called Antibody E (Fab in solution)) VH: QVQLVQSGAEVKKPGASVKVSCKASGYTFTSNYMHWVRQAPGQGLEWMGIINPSEGSTGYAQKFQGRVTMTRDTSTSTVYMELSSLRSEDTAVYYCAKEGVADGYGLVDVWGQGTMVTVSS VL: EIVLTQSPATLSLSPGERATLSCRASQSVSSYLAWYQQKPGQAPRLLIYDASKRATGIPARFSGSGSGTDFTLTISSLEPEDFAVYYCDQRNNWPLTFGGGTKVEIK | 7.6

Continue with the next binder.
In: Look up Kd for this binder: Fab of Antibody B (Fab, V domains shown, Fab in solution in BLI; also called Antibody B (Fab in solution)) VH: QVQLVQSGAEVKKPGASVKVSCKASGYTFEGYYMHWVRQAPGQGLEWMGIINPEGGETSYAQKFQGRVTMTRDTSISTAYMELSRLRSDDTAVYYCAKEGVADGYGLVDVWGQGTMVTVSS VL: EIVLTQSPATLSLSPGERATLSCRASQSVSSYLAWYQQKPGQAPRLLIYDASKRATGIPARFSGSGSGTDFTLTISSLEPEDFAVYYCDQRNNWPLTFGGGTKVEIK
Out: 17
